# protocol_details: Plasma pharmacokinetics of BMS-986142, SAD
# Type: in vivo
# run_conditions: both sexes, human, oral, at therapeutic doses, read-out: Mean T1/2
assay_metric: half-life

Req: Fill in: half-life of Cc1c(-c2c(F)cc(C(N)=O)c3[nH]c4c(c23)CC[C@H](C(C)(C)O)C4)cccc1-n1c(=O)c2cccc(F)c2n(C)c1=O is ___
Resp: ≤ 11 h

* * *

# protocol_details: Plasma pharmacokinetics of BMS-986142, SAD
# Type: in vivo
# run_conditions: human, oral, SAD day 1, 5 mg, n = 6, read-out: AUC(0-T) geometric mean (%CV)
assay_metric: AUC(0-t)

Req: AUC(0-t) lookup needed for Cc1c(-c2c(F)cc(C(N)=O)c3[nH]c4c(c23)CC[C@H](C(C)(C)O)C4)cccc1-n1c(=O)c2cccc(F)c2n(C)c1=O , thanks.
Resp: 83.1 ng·h/mL

* * *

# protocol_details: Plasma pharmacokinetics of BMS-986142, SAD
# Type: in vivo
# run_conditions: human, oral, 5 mg, SAD day 1, 5 mg, n = 5, read-out: T1/2 mean (SD) (converted)
assay_metric: half-life (h)
Provide only the numeric value, understood in h.

Req: Can you share its half-life? I mean this compound: Cc1c(-c2c(F)cc(C(N)=O)c3[nH]c4c(c23)CC[C@H](C(C)(C)O)C4)cccc1-n1c(=O)c2cccc(F)c2n(C)c1=O [BMS-986142]
Resp: 6.87

* * *

# protocol_details: Plasma pharmacokinetics of BMS-986142, MAD
# Assay type: in vivo, human
# run_conditions: human, plasma, oral; MAD day 14, 200 mg QD, n = 6; read-out: Cmin geometric mean (%CV)
# Protocol: Eligible participants were confined to the clinical facility (WCCT Global, LLC, Cypress, CA) the day before dosing (day −1) and randomized to receive SAD or MAD treatment under fasting conditions for 10 h. […] Plasma samples were analyzed for BMS-986142 levels with a validated method using liquid chromatography tandem mass spectrometry (LC-MS/MS) detection. […] The lower limit of quantification (LLOQ) was 1.00 ng/mL in plasma. Plasma samples were analyzed for methotrexate levels using LC-MS/MS detection. […]
assay_metric: concentration at 14 day (µg/mL)
Write down the numeric answer in µg/mL and omit the unit.

Req: Form field: reported concentration at 14 day of Cc1c(-c2c(F)cc(C(N)=O)c3[nH]c4c(c23)CC[C@H](C(C)(C)O)C4)cccc1-n1c(=O)c2cccc(F)c2n(C)c1=O [BMS-986142]
Resp: 0.0676

* * *

# protocol_details: Plasma pharmacokinetics of BMS-986142, SAD
# Format: in vivo
# run_conditions: human, oral, 15 mg, SAD day 1, 15 mg, n = 6, read-out: T1/2 mean (SD) (converted)
assay_metric: half-life (h)
Answer format: numeric, h implied, no suffix.

Req: Quick one: half-life for Cc1c(-c2c(F)cc(C(N)=O)c3[nH]c4c(c23)CC[C@H](C(C)(C)O)C4)cccc1-n1c(=O)c2cccc(F)c2n(C)c1=O ?
Resp: 8.02

* * *

# protocol_details: Plasma pharmacokinetics of BMS-986142, SAD
# Type: in vivo
# run_conditions: both sexes, human, oral, single dose, 5–900 mg dose range, read-out: Mean T1/2 (half-life), range over doses
assay_metric: half-life

Req: I'd like to know its half-life. The compound in question is Cc1c(-c2c(F)cc(C(N)=O)c3[nH]c4c(c23)CC[C@H](C(C)(C)O)C4)cccc1-n1c(=O)c2cccc(F)c2n(C)c1=O
Resp: 7 to 11 h

FYI, the data here is from paper PMC5423977.
